- Assay procedure: Phase I study CXR1002-001: plasma pharmacokinetics (LC-MS/MS)
- Format: in vivo, human
- Protocol conditions: human, plasma, oral, 600 mg, Patient 018, 600 mg, person, plasma, 168 hr (Day 8); read-out: Concentration
Measure name: concentration at 168 h (µM)
Answer format: numeric, µM implied, no suffix.

In: Param item = O=C(O)C(F)(F)C(F)(F)C(F)(F)C(F)(F)C(F)(F)C(F)(F)C(F)(F)F [CXR1002] ; retrieve measured concentration at 168 h.
Out: 181

---

- Assay procedure: Phase I study CXR1002-001: plasma pharmacokinetics (LC-MS/MS)
- Format: in vivo, human
- Protocol conditions: human, plasma, po, 1000 mg, Patient 041, 1000 mg weekly oral dose, Time 696 hr (Day 30); read-out: Concentration (plasma level)
Measure name: concentration at 696 hr (µM)
Answer format: numeric, µM implied, no suffix.

In: Param item = O=C(O)C(F)(F)C(F)(F)C(F)(F)C(F)(F)C(F)(F)C(F)(F)C(F)(F)F ; retrieve measured concentration at 696 hr.
Out: 786

All figures here come from patent US20130029928A1.
